Test system: L1210 leukemia ip in BDF1 mice, survival T/C
Experiment: NCI In Vivo Anticancer Drug Screen. Data for tumor model L1210 Leukemia (intraperitoneal) in B6D2F1 (BDF1) mice
Conditions: endpoint: mean survival time; dose: 200.0 mg/kg/injection; schedule: Q01DX001 (ip); vehicle: saline; higher = longer survival
Toxic doses and inconclusive results are not listed.
readout: T/C

Reference set, count: 5
| molecule | T/C |
| --- | --- |
| NC1(C(=O)O)CC(O)(c2ccccc2)C(O)(c2ccccc2)C1 (stereo not given) | 93 % of control |
| CN(C(=O)c1cc([N+](=O)[O-])ccc1O)c1ccccc1 | 95 % of control |
| CCCCCCSCCO | 94 % of control |
| OCc1ccn2c1[C@@H](O)CC2 | 112 % of control |
| CC(C)Oc1ccc(Nc2ccccc2)cc1 | 107 % of control |

Please give the measured T/C for this molecule: O=C(O)CCCCCCC(=O)OCC(=O)c1ccc(-c2ccccc2)cc1 91 % of control

// T/C lookup, key: O=C(O)CCN(c1ccccc1)S(=O)(=O)c1ccccc1 94 % of control

# input molecule: CC/C(I)=C(/CC)S(=O)(=O)c1ccc(C)cc1 ; wanted: its T/C 103 % of control

Value lookup for T/C; key = O=C(O)C(=O)O.[Co+3].[NH-]C(Cc1ccccc1)C(=O)[O-].[NH-]CCN(CC[NH-])CC[NH-] (stereo not given) 104 % of control

Look up T/C: O=S(=O)(Cl)c1cccc2cc3ccccc3cc12 100 % of control

Consider the molecule shown here: O=C(NC(Cc1ccccc1)C(=O)N1CCOCC1)c1ccccc1 (stereo not given) What is its recorded T/C? 98 % of control

Which T/C reading was recorded for the molecule CN1CCC(CN2c3ccccc3Sc3ccccc32)CC1 ? 102 % of control

So what does the record say about T/C for NC(N)=NS(=O)(=O)c1ccc(C(N)=NC2CCCCC2)cc1 ? 96 % of control

Reported T/C for CCSc1ncnc2nc(C)[nH]c12 : what is it? 101 % of control

// lookup T/C for O=C(OC(=Nc1ccc([N+](=O)[O-])cc1)c1cc(N2CCCC2)ccn1)c1ccc(-c2ccccc2)cc1 97 % of control
